Where do these numbers come from? They come from ChEMBL document CHEMBL1221255.

Species on record: Homo sapiens
Assay: Selectivity ratio of IC50 for human MAOA to IC50 for human MAOB
Field: Ratio IC50. Provide a value for each of the molecules that follow.

### Prompt Need Ratio IC50, item Cc1cc(Br)c2oc(=O)c(-c3ccccc3)cc2c1
### Response > 9050

### Prompt Note, next up: COc1cc(OC)cc(-c2cc3cc(C)cc(Br)c3oc2=O)c1
### Response > 14000

### Prompt Also need COc1ccc(-c2cc3cc(C)cc(Br)c3oc2=O)cc1 , thanks.
### Response > 31000

### Prompt Same question for Cc1ccc2oc(=O)c(-c3ccccc3Br)cc2c1 please.
### Response > 23

### Prompt Note, next up: COc1cc(-c2cc3cc(C)cc(Br)c3oc2=O)cc(OC)c1OC
### Response 6.4

* * *

Target: Amine oxidase [flavin-containing] B (Homo sapiens)
Sequence (P27338 whole entry): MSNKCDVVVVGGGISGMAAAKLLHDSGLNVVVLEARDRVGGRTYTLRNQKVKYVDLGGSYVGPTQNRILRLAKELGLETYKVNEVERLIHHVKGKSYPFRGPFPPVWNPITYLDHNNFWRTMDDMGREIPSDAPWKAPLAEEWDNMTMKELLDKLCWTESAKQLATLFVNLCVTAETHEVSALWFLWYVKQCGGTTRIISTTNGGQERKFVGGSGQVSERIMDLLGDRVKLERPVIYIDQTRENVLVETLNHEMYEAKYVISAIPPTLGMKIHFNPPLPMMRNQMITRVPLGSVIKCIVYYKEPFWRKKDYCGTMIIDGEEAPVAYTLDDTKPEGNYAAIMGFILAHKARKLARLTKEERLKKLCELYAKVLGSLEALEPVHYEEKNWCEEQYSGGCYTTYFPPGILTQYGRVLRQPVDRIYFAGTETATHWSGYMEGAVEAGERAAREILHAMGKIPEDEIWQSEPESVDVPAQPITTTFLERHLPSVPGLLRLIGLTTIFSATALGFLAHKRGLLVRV
Experiment: Inhibition of human MAOB expressed in BTI insect cells
metric_name: pIC50
Just so you know, pIC50 here is -log10 of the concentration in molar units; reply with that number alone.

### Prompt Would you mind telling me what pIC50 value was observed for COc1ccc(-c2cc3cc(C)cc(Br)c3oc2=O)cc1 ?
### Response 8.49

### Prompt Also COc1cc(-c2cc3cc(C)cc(Br)c3oc2=O)cc(OC)c1OC ?
### Response 5.31

### Prompt Can you handle Cc1cc(Br)c2oc(=O)c(-c3ccccc3)cc2c1 next?
### Response 7.96

### Prompt Field entry: COc1cc(OC)cc(-c2cc3cc(C)cc(Br)c3oc2=O)c1
### Response 8.15

### Prompt Same thing, different compound: Cc1ccc2oc(=O)c(-c3ccccc3Br)cc2c1
### Response 5.37

* * *

Target: UniProt P21397
Sequence (P21397 whole entry): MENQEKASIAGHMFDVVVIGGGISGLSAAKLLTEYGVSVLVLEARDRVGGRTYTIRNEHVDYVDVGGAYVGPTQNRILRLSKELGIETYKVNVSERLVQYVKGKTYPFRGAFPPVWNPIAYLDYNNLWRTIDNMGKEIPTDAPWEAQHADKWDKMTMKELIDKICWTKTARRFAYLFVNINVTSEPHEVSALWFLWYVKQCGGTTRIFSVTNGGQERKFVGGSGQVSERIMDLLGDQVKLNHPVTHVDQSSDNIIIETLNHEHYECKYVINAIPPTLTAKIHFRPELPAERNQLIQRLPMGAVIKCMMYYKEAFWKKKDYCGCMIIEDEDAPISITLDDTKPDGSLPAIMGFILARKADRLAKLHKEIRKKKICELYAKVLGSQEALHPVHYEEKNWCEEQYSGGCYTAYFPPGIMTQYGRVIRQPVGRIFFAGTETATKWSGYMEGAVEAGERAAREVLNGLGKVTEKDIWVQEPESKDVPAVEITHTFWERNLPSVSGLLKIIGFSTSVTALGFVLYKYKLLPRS
Assay: Inhibition of human MAOA expressed in BTI insect cells
metric_name: pIC50
Scale: negative log10 of molar concentration, which is what pIC50 denotes.

### Prompt Can you share its pIC50? I mean this molecule: COc1cc(-c2cc3cc(C)cc(Br)c3oc2=O)cc(OC)c1OC
### Response 4.51
